Source listed as patent US20180327367A1.

Assignment: determine reported MIC for the given compounds.
# Test system: Methicillin Resistant Staphylococcus aureus strain USA 300, NRS384
# Test description: Minimum inhibitory concentration, broth micro-dilution (CLSI), S. aureus
# Assay type: cell-based
# Run parameters: Staphylococcus aureus, MRSA / NRS 384 / USA300, 22 h, MRSA USA 300 NRS384; 35° C., 22 hours; read-out: MIC (μg/mL) S. aureus
# Experimental: In vitro antimicrobial activity of each compound was determined by measuring minimal inhibitor concentrations (MICs) using the broth micro-dilution technique as approved by the Clinical and Laboratory Standards Institute (CLSI) (Methods for Dilution Antimicrobial Susceptibility Tests for Bacteria that Grow Aerobically; Approved Standard—Eighth Edition. CLSI document M07-A8. Wayne, Pa.: Clinical and Laboratory Standards; 2009). […]
Numbers only, in µg/mL.

- Compound: "CCCCCCCCCCCC(=O)N[C@@H](CCC#N)C(=O)N(C)[C@@H]1C(=O)N[C@@H](C)C(=O)N[C@H](C(=O)NCC#N)Cc2ccc(OCCN)c(c2)-c2cc1ccc2OCCN"
  Target or test system: "Methicillin Resistant Staphylococcus aureus strain USA 300, NRS384"
  Unit of measure: "µg/mL"
  MIC: 0.5

Please give MIC, item by item, for the list that follows.
1. CCCCCCCCc1ccc(C(=O)N[C@@H](CCN)C(=O)N(C)[C@@H]2C(=O)N[C@@H](C)C(=O)N[C@H](C(=O)NCC#N)Cc3ccc(OCCN)c(c3)-c3cc2ccc3OCCN)c(Cl)c1
2. Cc1cc(OCC2CCCCC2)ccc1C(=O)N[C@@H](CCN)C(=O)N(C)[C@@H]1C(=O)N[C@@H](C)C(=O)N[C@H](C(=O)NCC#N)Cc2ccc(OCCN)c(c2)-c2cc1ccc2OCCN
3. CCCCCCCCc1ccc(C(=O)N[C@@H](CCN)C(=O)N(C)[C@@H]2C(=O)N[C@@H](C)C(=O)N[C@H](C(=O)NCC#N)Cc3ccc(OCCN)c(c3)-c3cc2ccc3OCCN)c(OCC(=O)O)c1
4. CCCCCCCOc1c(F)cc(C(=O)N[C@@H](CCN)C(=O)N(C)[C@@H]2C(=O)N[C@@H](C)C(=O)N[C@H](C(=O)NCC#N)Cc3ccc(OCCN)c(c3)-c3cc2ccc3OCCN)cc1Cl
5. CCCCCCCCCCCCCC(=O)N[C@@H](CN)C(=O)N(C)[C@@H]1C(=O)N[C@@H](C)C(=O)N[C@H](C(=O)NCC#N)Cc2ccc(OCCN)c(c2)-c2cc1ccc2OCCN
6. CCCCCCCCCCC(C)(C)C(=O)N[C@@H](CCN)C(=O)N(C)[C@@H]1C(=O)N[C@@H](C)C(=O)N[C@H](C(=O)NCC#N)Cc2ccc(OCCN)c(c2)-c2cc1ccc2OCCN
7. CCCCCCCc1cc(F)c(C(=O)N[C@@H](CCN)C(=O)N(C)[C@@H]2C(=O)N[C@@H](C)C(=O)N[C@H](C(=O)NCC#N)Cc3ccc(OCCN)c(c3)-c3cc2ccc3OCCN)c(Cl)c1

A:
1: 0.094; 2: 0.063; 3: 0.25; 4: 0.063; 5: 0.094; 6: 0.063; 7: 0.063

====

Assignment: determine reported log10 MIC for the given compounds.
# Test system: Methicillin Resistant Staphylococcus aureus strain USA 300, NRS384
# Test description: Minimum inhibitory concentration, broth micro-dilution (CLSI), S. aureus
# Assay type: cell-based
# Run parameters: Staphylococcus aureus, MRSA / NRS 384 / USA300, 22 h, MRSA USA 300 NRS384; 35° C., 22 hours; read-out: MIC (μg/mL) S. aureus
In plain terms, each number is the log10 of measured MIC in µg/mL.

Here's what some known entries look like.
- Molecular string: "Cc1cc(OCCC(C)C)ccc1C(=O)N[C@@H](CCN)C(=O)N(C)[C@@H]1C(=O)N[C@@H](C)C(=O)N[C@H](C(=O)NCC#N)Cc2ccc(OCCN)c(c2)-c2cc1ccc2OCCN"
  Observed property: "log10 MIC"
  Data value: -0.89
- Molecular string: "CCCCCCCCc1ccc(C(=O)N[C@@H](CCN)C(=O)N(C)[C@@H]2C(=O)N[C@@H](C)C(=O)N[C@H](C(=O)NCC#N)Cc3ccc(OCCN)c(c3)-c3cc2ccc3OCCN)c(CCC(N)=O)c1"
  Observed property: "log10 MIC"
  Data value: -1.64
- Molecular string: "CCCCc1ccc(-c2ccc(C(=O)N[C@@H](CCCCN)C(=O)N(C)[C@@H]3C(=O)N[C@@H](C)C(=O)N[C@H](C(=O)NC4(C#N)CC4)Cc4ccc(OCCN)c(c4)-c4cc3ccc4OCCN)cc2)cc1"
  Observed property: "log10 MIC"
  Data value: 0.00
- Molecular string: "CCCCc1ccc(-c2ncc(C(=O)N[C@@H](CCN)C(=O)N(C)[C@@H]3C(=O)N[C@@H](C)C(=O)N[C@H](C(=O)NCC#N)Cc4ccc(OCCN)c(c4)-c4cc3ccc4OCCN)c(C)n2)cc1"
  Observed property: "log10 MIC"
  Data value: -1.80

--- query ---
Q: Could you tell me which log10 MIC is on file for CCCCCCCSc1ccc(C(=O)N[C@@H](CCN)C(=O)N(C)[C@@H]2C(=O)N[C@@H](C)C(=O)N[C@H](C(=O)NCC#N)Cc3ccc(OCCN)c(c3)-c3cc2ccc3OCCN)c(C)c1 ?
A: -1.20
